What EC50 vpac2 (Molar), cell-based cAMP assay was measured for each of the following?
# TESTED_ON: T1, VPAC2 receptor (UniProt P41587 24-438, limits assumed)
# T1 sequence (looked up): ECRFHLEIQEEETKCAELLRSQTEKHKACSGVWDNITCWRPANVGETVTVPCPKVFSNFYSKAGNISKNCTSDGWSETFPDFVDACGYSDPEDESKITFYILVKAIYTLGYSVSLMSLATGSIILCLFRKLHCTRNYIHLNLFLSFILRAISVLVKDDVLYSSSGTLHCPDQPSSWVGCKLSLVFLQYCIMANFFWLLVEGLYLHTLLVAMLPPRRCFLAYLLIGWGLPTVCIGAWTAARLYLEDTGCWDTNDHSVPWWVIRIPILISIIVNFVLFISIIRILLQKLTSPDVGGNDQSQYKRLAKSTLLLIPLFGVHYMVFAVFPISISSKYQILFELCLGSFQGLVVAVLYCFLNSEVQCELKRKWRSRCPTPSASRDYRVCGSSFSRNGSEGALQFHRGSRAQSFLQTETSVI
# TEST: cell-based or functional assay
Where no end group is shown, it is not given here. [ ]: non-standard residue; d: D form. APC = 3-aminopyrrolidine-4-carboxylic acid; ACPC = 2-aminocyclopentanecarboxylic acid; β3hN = NC(=O)C[C@H](N)CC(=O)O; β3hK = NCCCC[C@H](N)CC(=O)O; β3hV = CC(C)[C@H](N)CC(=O)O; Aib = CC(C)(N)C(=O)O; βAla = NCCC(=O)O
Give bare numbers, in nM.

[[record]]
binder = "Ac-H[Aib]DA[β3hV]FTE[β3hN]YTKLRKQLAA[APC]KY[ACPC]NDL[β3hK]KG[βAla]T (not fully specified (C-terminus); printed as Ac-HBDAvFTEnYTKLRKQLAAzKYxNDLkKGgT) [LBT-V206]"
unit_of_measurement = "nM"
numeric_readout = 3.47


# next binder below
-- ask So what does the record say about EC50 vpac2 (Molar), cell-based cAMP assay for Ac-H[ACPC]DA[β3hV]FTENYTKLR[β3hK]QLAA[APC]KY[ACPC]NDL[β3hK]KG[βAla]T (not fully specified (C-terminus); printed as Ac-HxDAvFTENYTKLRkQLAAzKYxNDLkKGgT) [LBT-V213] ?
-- reply 1.27
